Test system: HepG2
Test: GSK_TCMDC: Percent inhibition of human HepG2 cell line. Test compounds present at 10uM.
Type: functional
Param threshold (20%) applies to Inhibition; output met when value >= threshold, not met when value < threshold.

{"columns": ["Compound", "Class"],
 "data": [
  ["O=C(O)C(F)(F)F.O=[N+]([O-])c1cccc(CNCC2CCN(Cc3ccc(Cl)c(Cl)c3)CC2)c1", "not met"],
  ["CN1CCN(C(C(=O)NCc2cc(Cl)cc(Cl)c2)c2ccc(NC(=O)Nc3ccccc3)cc2)CC1.O=C(O)C(F)(F)F (stereo not drawn)", "met"],
  ["COc1ccc2nc3cc(Cl)ccc3c(NCCCN3CCNCC3)c2c1.Cl", "not met"],
  ["COc1ccc(-c2cccc(NC(=O)c3ccc(C#N)cc3)c2)cc1CNC(C)C.O=C(O)C(F)(F)F", "met"],
  ["Cc1ccc2cc(NC(=O)CCCCCCCON3C(N)=NC(N)=NC34CCCCC4)ccc2n1.O=C(O)C(F)(F)F", "not met"],
  ["Cc1cccc2nc(-c3ccc(-c4ccc(NC(=O)CN5CCN(C)CC5)cc4)cc3)[nH]c12", "met"],
  ["CN1CCN(CCCN(C(=O)Nc2cc(C(F)(F)F)cc(C(F)(F)F)c2)c2ccccc2Cc2ccccc2)CC1", "met"],
  ["O=C(O)C(F)(F)F.O=[N+]([O-])c1cccc(CNC2CCN(Cc3ccc(C(F)(F)F)cc3)CC2)c1", "not met"]
]}

----------
System: Plasmodium falciparum
Experiment: GSK_TCMDC: Inhibition of Plasmodium falciparum 3D7 in whole red blood cells, using parasite LDH activity as an index of growth. Test compounds present at 2uM
Assay type: functional

{"columns": ["Molecule", "Inhibition [%]"],
 "data": [
  ["Cc1cc(O)c(CN2CCN(Cc3cccs3)CC2)cc1C(C)C", 98],
  ["COc1cc2nc(N3CCC(CNC(=O)c4ccc(-c5ccc(C(=O)N(C)C)cc5C)cc4)CC3)nc(N3CCN(C)CC3)c2cc1OC", 88],
  ["Cc1cccc2c(C(=O)NC3CCN(Cc4ccccc4)CC3)cc(-c3cccnc3)nc12", 81],
  ["O=C(C=Cc1ccc(Cl)c(Cl)c1)NCCCCCN1CCC(CCNS(=O)(=O)c2ccc(F)cc2)CC1", 88],
  ["O=[N+]([O-])c1ccc(/C=N/O)nc1", 80],
  ["O=C(Nc1cccc(C(F)(F)F)c1)c1cccc(S(=O)(=O)NCC2CCN(CC3CCCCC3)CC2)c1.O=C(O)C(F)(F)F", 97],
  ["CC(=O)Nc1nc(C(=O)Nc2ccc(-c3cccc(-c4nc5cccc(C)c5[nH]4)c3)cc2)cs1", 100],
  ["COc1ccc2nccc([C@@H](O)CN3CCC(NCc4cc5oc(=O)[nH]c5cc4F)CC3)c2c1.O=C(O)C(=O)O", 99],
  ["Fc1ccc2[nH]c(-c3ccc(-c4ccc(CNCc5cnn(-c6ccccc6)n5)cc4)cc3)nc2c1.O=C(O)C(F)(F)F", 98],
  ["CCC[C@@H]([C@@H](CC1CCCCC1)C(=O)N[C@H](C(=O)Nc1nccs1)C(C)(C)SC)N(O)C=O", 97],
  ["COc1ccc(CC(=O)NC(CCCN2CCC3(CC2)OCc2ccccc23)c2ccc(Cl)c(Cl)c2)cc1 (stereo unspecified)", 83],
  ["Cl.Nc1ccncc1C(=O)NCCCCN1CCN(c2nsc3ccccc23)CC1", 100],
  ["CC(C)CC(=O)N1CCNC[C@@H]1C(=O)NCCSCc1c(F)cccc1Cl.O=C(O)C(F)(F)F", 86],
  ["CCC(C)OC(=O)C1=C(C)NC2=C(C(=O)CC(c3ccc(OC)c(OC)c3)C2)C1c1cccc(O)c1 (stereo unspecified)", 100],
  ["Cc1[nH]c2c(C)cccc2c1C1CCN(CCC2CCN(C(=O)/C=C/c3ccc(Cl)c(Cl)c3)CC2)CC1", 100],
  ["COc1ccc2nccc([C@@H](O)CN3CCC(NCCOc4ccc(F)cc4[N+](=O)[O-])CC3)c2c1.O=C(O)C(=O)O", 99],
  ["NC1CCCN(Cc2ccc(-c3ccc(-c4nc5ccccc5[nH]4)s3)cc2)C1.O=C(O)C(F)(F)F (stereo unspecified)", 100],
  ["O=C(NCc1cccc(F)c1)Nc1cccc(-c2ccc(-c3nc4cc(C(F)(F)F)ccc4[nH]3)cc2)c1", 98],
  ["CCC(CC)CN1C(=O)C(C)(c2ccccc2)N=C1N.O=C(O)C(F)(F)F (stereo unspecified)", 84],
  ["Cl.N=C(N)c1ccc(Nc2nc(Nc3ccc(-c4ccccc4)cc3)ncc2[N+](=O)[O-])cc1", 99],
  ["CC(C)CN1CCCN(Cc2cccc(NC(=O)c3cc4ccccc4s3)c2)CC1.O=C(O)C(F)(F)F", 87],
  ["CCNCc1ccc(-c2cc3ncnc(Nc4ccc(OCc5cccc(F)c5)c(Cl)c4)c3s2)[nH]1", 100],
  ["Cl.c1ccc2c(NCCOCCNc3c4ccccc4nc4ccccc34)c3ccccc3nc2c1", 94],
  ["CS(=O)(=O)c1ccc(CNCc2cccc(-c3ccc(-c4nc5cc(C(F)(F)F)ccc5[nH]4)cc3)c2)cc1.O=C(O)C(F)(F)F", 100],
  ["O=C(CCCCCNC(=O)c1ccc(O)c(-c2cccc(C(F)(F)F)c2)c1)NCCN1CCCCC1", 99],
  ["FC(F)(F)c1cccc(Nc2nc(-c3ccccc3)nc3ncccc23)c1", 97],
  ["Cc1cccnc1Nc1nc(-c2ccccn2)cs1", 96],
  ["CCCN(CCC)C(=O)c1cc(-c2cccc(C)c2)nc2ccccc12", 86],
  ["Cc1cccc2nc(-c3cccc(-c4cccc(NC(=O)Nc5ccsc5)c4)c3)[nH]c12", 100],
  ["CCCCCN1CCC(NS(=O)(=O)c2cccc(C(=O)Nc3cccc(C(F)(F)F)c3)c2)C1.O=C(O)C(F)(F)F (stereo unspecified)", 86],
  ["COc1ccc2nccc([C@@H](O)CN3CCC(NCc4ccc5cccc(O)c5n4)CC3)c2c1.O=C(O)C(=O)O", 93],
  ["CCOC(=O)NOC(C(=O)O)c1ccccc1 (stereo unspecified)", 99],
  ["COc1ccc(-c2nnc(Sc3ccc(C#N)c([N+](=O)[O-])c3)n2CCC(C)C)cc1", 89],
  ["COC(=O)c1cccc(CNCc2ccc(-c3cccc(-c4nc5cc(C(F)(F)F)ccc5[nH]4)c3)cc2)c1.O=C(O)C(F)(F)F", 100],
  ["CC(CN(C)C)Oc1ccc2nc(-c3cccc(OCc4ccccc4)c3)[nH]c2c1C#N (stereo unspecified)", 100],
  ["CNCCNCc1ccc(-c2ccc(-c3nc4cc(F)ccc4[nH]3)s2)cc1.O=C(O)C(F)(F)F", 99]
]}
